Recorded measurements of viability, T/C, one per entry
System: 616215-338-R-J1-PDC complex spheroid viability
Test: Anticancer human tumor 616215-338-R-J1-PDC patient-derived colon adenocarcinoma cell line growth inhibition [POLQ]
Conditions: second compound 0.1 µM; first compound 0.1 µM; active compounds read low
Description: Multicellular complex tumor spheroid response to Polymerase (POL) inhibitors (novobiocin, ART-558, RP6685) in combination with a variety of drugs and investigational agents in selected tumor cell lines The POL inhibitors (novobiocin, ART-558, and RP6685) were evaluated both individually and in combination with standard of care and investigational anticancer small molecules within a complex spheroid model of solid tumors. . […]
I only need the number, in %, no unit after it.

# get_value(readout= viability, T/C, system= 616215-338-R-J1-PDC complex spheroid viability) for O=c1[nH]cc(F)c(=O)[nH]1 + Nc1ccc(C#CCN(C(=O)Cc2ncc(C(F)(F)F)cc2C(F)(F)F)c2ccc(F)cc2)nn1
92.2

Further cases:
Please state recorded viability, T/C (tested on 616215-338-R-J1-PDC complex spheroid viability) of Cn1ncnc1[C@H]1c2n[nH]c(=O)c3cc(F)cc(c23)N[C@@H]1c1ccc(F)cc1 + COC1C(OC(N)=O)C(O)C(Oc2ccc3c(O)c(NC(=O)c4ccc(O)c(CC=C(C)C)c4)c(=O)oc3c2C)OC1(C)C
109

Likewise for CCc1cc2c(N3CCc4c(cc(Cn5ccnc5)cc4-c4cn(C)nc4C(F)(F)F)C3=O)cc(C)nc2c(OC)n1 + Nc1ccc(C#CCN(C(=O)Cc2ncc(C(F)(F)F)cc2C(F)(F)F)c2ccc(F)cc2)nn1 ?
101

###

Tested on: 616215-338-R-J1-PDC complex spheroid viability
Assay: Anticancer human tumor 616215-338-R-J1-PDC cell line growth inhibition [POLQ]
Conditions: second compound 1 µM; first compound 0.316 µM; active compounds read low
reported_metric: viability, T/C (%)
# value in %; strip the unit string

Worked set:
Please look up its viability, T/C: CC1COCCN1c1cc(-c2ccnn2C)c2ccnc(-c3ccn[nH]3)c2n1 (stereo not drawn) + COC1C(OC(N)=O)C(O)C(Oc2ccc3c(O)c(NC(=O)c4ccc(O)c(CC=C(C)C)c4)c(=O)oc3c2C)OC1(C)C
58.9

Do the same for COc1cccc(OCCCN)c1-c1cc(Nc2cnc(C#N)cn2)n[nH]1 + COC1C(OC(N)=O)C(O)C(Oc2ccc3c(O)c(NC(=O)c4ccc(O)c(CC=C(C)C)c4)c(=O)oc3c2C)OC1(C)C please
67.2

Next up:
For the molecule shown here, COc1ccc([C@@H](O)c2cc(-c3ncnc4cc(N5CCOCC5)ccc34)c(F)cc2Cl)nn1 + COC1C(OC(N)=O)C(O)C(Oc2ccc3c(O)c(NC(=O)c4ccc(O)c(CC=C(C)C)c4)c(=O)oc3c2C)OC1(C)C , give the reported viability, T/C.
116

###

Tested on: 616215-338-R-J1-PDC complex spheroid viability
Test: Anticancer human tumor 616215-338-R-J1-PDC cell line growth inhibition [POLQ];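 note: spheroids exposed to compounds for one week before readout; percent viability relative to DMSO vehicle wells taken as 100%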
Settings: second compound 0.0316 µM; first compound 0.316 µM; active compounds read low
Each entry below carries its recorded viability, T/C.
Give your result in % as a bare value.

// viability, T/C lookup, key: CCc1cc2c(N3CCc4c(cc(Cn5ccnc5)cc4-c4cn(C)nc4C(F)(F)F)C3=O)cc(C)nc2c(OC)n1 + Nc1ccc(C#CCN(C(=O)Cc2ncc(C(F)(F)F)cc2C(F)(F)F)c2ccc(F)cc2)nn1
80.2

Lookup C#Cc1c(F)ccc2cc(O)cc(-c3ncc4c(N5CC6CCC(C5)N6)nc(OCC56CCCN5CC(F)C6)nc4c3F)c12 (stereo not given) + Nc1ccc(C#CCN(C(=O)Cc2ncc(C(F)(F)F)cc2C(F)(F)F)c2ccc(F)cc2)nn1
98.5

Check CC1COCCN1c1cc(-c2ccnn2C)c2ccnc(-c3ccn[nH]3)c2n1 (stereo not given) + COC1C(OC(N)=O)C(O)C(Oc2ccc3c(O)c(NC(=O)c4ccc(O)c(CC=C(C)C)c4)c(=O)oc3c2C)OC1(C)C too.
70.4

Also, COc1cccc2c1C(=O)c1c(O)c3c(c(O)c1C2=O)CC(O)(C(=O)CO)CC3OC1CC(N)C(O)C(C)O1 (stereo not given) + Nc1ccc(C#CCN(C(=O)Cc2ncc(C(F)(F)F)cc2C(F)(F)F)c2ccc(F)cc2)nn1 please.
43.8

Now take the following molecule into account.
Recorded viability, T/C for COc1cc(C2c3cc4c(cc3C(OC3OC5COC(C)OC5C(O)C3O)C3COC(=O)C23)OCO4)cc(OC)c1O (stereo not given) + Cc1cccc(N(C)C(=O)C2C(O)CCN2c2nc(C)cc(C(F)(F)F)c2C#N)c1 , please?
85.3

###

Tested on: 616215-338-R-J1-PDC complex spheroid viability
Assay: Anticancer human tumor 616215-338-R-J1-PDC cell line growth inhibition [POLQ];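 note: spheroids exposed to compounds for one week before readout; percent viability relative to DMSO vehicle wells taken as 100%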
Details: second compound 0.1 µM; first compound 0.1 µM; active compounds read low
Below is a list of entries, each paired with its recorded viability, T/C value.
Just the number in %, nothing appended.

So what's the measured viability, T/C for this one? COc1cccc(OCCCN)c1-c1cc(Nc2cnc(C#N)cn2)n[nH]1 + Nc1ccc(C#CCN(C(=O)Cc2ncc(C(F)(F)F)cc2C(F)(F)F)c2ccc(F)cc2)nn1
43

Note, next up: O=C(c1cc(Cc2n[nH]c(=O)c3ccccc23)ccc1F)N1CCN(C(=O)C2CC2)CC1 + COC1C(OC(N)=O)C(O)C(Oc2ccc3c(O)c(NC(=O)c4ccc(O)c(CC=C(C)C)c4)c(=O)oc3c2C)OC1(C)C
89

Same again, this time with CC[C@@]1(O)C(=O)OCc2c1cc1n(c2=O)Cc2cc3c(CN(C)C)c(O)ccc3nc2-1 + Cc1cccc(N(C)C(=O)C2C(O)CCN2c2nc(C)cc(C(F)(F)F)c2C#N)c1
79.6

Consider next the compound C=CCn1c(=O)c2cnc(Nc3ccc(N4CCN(C)CC4)cc3)nc2n1-c1cccc(C(C)(C)O)n1 + Nc1ccc(C#CCN(C(=O)Cc2ncc(C(F)(F)F)cc2C(F)(F)F)c2ccc(F)cc2)nn1 in the same way.
97.1

New cases:
I am curious: what viability, T/C value has been reported for CCc1cc2c(N3CCc4c(cc(Cn5ccnc5)cc4-c4cn(C)nc4C(F)(F)F)C3=O)ccnc2c(OC)n1 + COC1C(OC(N)=O)C(O)C(Oc2ccc3c(O)c(NC(=O)c4ccc(O)c(CC=C(C)C)c4)c(=O)oc3c2C)OC1(C)C ?
108

###

System: 616215-338-R-J1-PDC complex spheroid viability
Experiment: Anticancer human tumor 616215-338-R-J1-PDC cell line growth inhibition [POLQ];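 note: spheroids exposed to compounds for one week before readout; percent viability relative to DMSO vehicle wells taken as 100%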
Conditions: second compound 0.1 µM; first compound 0.1 µM; active compounds read low
Description: Multicellular complex tumor spheroid response to Polymerase (POL) inhibitors (novobiocin, ART-558, RP6685) in combination with a variety of drugs and investigational agents in selected tumor cell lines The POL inhibitors (novobiocin, ART-558, and RP6685) were evaluated both individually and in combination with standard of care and investigational anticancer small molecules within a complex spheroid model of solid tumors. . […]
reported_metric: viability, T/C (%)
Write down the numeric answer in % and omit the unit.

Looking for the measured viability, T/C of CC1COCCN1c1cc(C2(O)CC3CCC(C2)O3)c2cnn(-c3ccn[nH]3)c2n1 (stereo not given) + Nc1ccc(C#CCN(C(=O)Cc2ncc(C(F)(F)F)cc2C(F)(F)F)c2ccc(F)cc2)nn1 , can you help?
76.6

Also check CCCS(=O)(=O)Nc1ccc(F)c(C(=O)c2c[nH]c3ncc(-c4ccc(Cl)cc4)cc23)c1F + COC1C(OC(N)=O)C(O)C(Oc2ccc3c(O)c(NC(=O)c4ccc(O)c(CC=C(C)C)c4)c(=O)oc3c2C)OC1(C)C
116

Field entry: CC1COCCN1c1cc(-c2ccnn2C)c2ccnc(-c3ccn[nH]3)c2n1 (stereo not given) + COC1C(OC(N)=O)C(O)C(Oc2ccc3c(O)c(NC(=O)c4ccc(O)c(CC=C(C)C)c4)c(=O)oc3c2C)OC1(C)C
91.1

Another molecule to check: C#Cc1c(F)ccc2cc(O)cc(-c3ncc4c(N5CC6CCC(C5)N6)nc(OCC56CCCN5CC(F)C6)nc4c3F)c12 (stereo not given) + Nc1ccc(C#CCN(C(=O)Cc2ncc(C(F)(F)F)cc2C(F)(F)F)c2ccc(F)cc2)nn1
95.9

Then there is this molecule:
Find the recorded viability, T/C belonging to C#Cc1c(F)ccc2cc(O)cc(-c3ncc4c(N5CC6CCC(C5)N6)nc(OCC56CCCN5CC(F)C6)nc4c3F)c12 (stereo not given) + COC1C(OC(N)=O)C(O)C(Oc2ccc3c(O)c(NC(=O)c4ccc(O)c(CC=C(C)C)c4)c(=O)oc3c2C)OC1(C)C and report it.
105

###

Test system: 616215-338-R-J1-PDC complex spheroid viability
Assay: Anticancer human tumor 616215-338-R-J1-PDC cell line growth inhibition [POLQ];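 note: spheroids exposed to compounds for one week before readout; percent viability relative to DMSO vehicle wells taken as 100%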
Details: second compound 1 µM; first compound 0.316 µM; active compounds read low
reported_metric: viability, T/C (%)
Kindly provide the numeric value in % only, without the unit symbol.

# query: viability, T/C of entry Nc1ccn(C2OC(CO)C(O)C2(F)F)c(=O)n1 (stereo unspecified) + Cc1cccc(N(C)C(=O)C2C(O)CCN2c2nc(C)cc(C(F)(F)F)c2C#N)c1
25.4

Same again, this time with C#Cc1c(F)ccc2cc(O)cc(-c3ncc4c(N5CC6CCC(C5)N6)nc(OCC56CCCN5CC(F)C6)nc4c3F)c12 (stereo unspecified) + Cc1cccc(N(C)C(=O)C2C(O)CCN2c2nc(C)cc(C(F)(F)F)c2C#N)c1
94.9

Field: next molecule
Looking for the measured viability, T/C of COc1ccc([C@@H](O)c2cc(-c3ncnc4cc(N5CCOCC5)ccc34)c(F)cc2Cl)nn1 + Cc1cccc(N(C)C(=O)C2C(O)CCN2c2nc(C)cc(C(F)(F)F)c2C#N)c1 , can you help?
109

This collection of values is drawn from PubChem BioAssay AID1963843.
